Biological target: CRF1R
Test: cell-based or functional assay
Ends that are not written are not given here.
observedProperty: CRF1R EC50 (µM)
Field: numeric (µM). Do not append units.

Ask: Note down CRF1R EC50 recorded for ZGPPISIDLPFFLLRKMIEIEKQEKEKQQAANNRLLLDTI (C-terminal amide) [SEQ ID NO 223]
Result: 0.0481

Ask: Note down CRF1R EC50 recorded for DNPSLSIDLPYYLLRTLLELARTQSQRERAEQNAIIFASV-NH2 [SEQ ID NO 263]
Result: 0.802

Ask: Note down CRF1R EC50 recorded for ZGPPISIDLPYHLLRKMIEIEKQEKEKQQAANNALLLAT (C-terminal amide) [SEQ ID NO 315]
Result: 0.455

Ask: Note down CRF1R EC50 recorded for ZGPPISIDLPFHLLRKMIEIEKQEKEKQQAANNALLLATI (C-terminal amide) [SEQ ID NO 229]
Result: 0.298

Ask: Note down CRF1R EC50 recorded for ZGPPISIDLPLQLLRKMIEIEKQEKEKQQATTNARLLDTV (C-terminal amide) [SEQ ID NO 246]
Result: 1

Ask: Note down CRF1R EC50 recorded for DNPSLSIDLPLFLLRTLLELEKTQSQRERAEQNARIFARV-NH2 [SEQ ID NO 334]
Result: 1

Ask: Note down CRF1R EC50 recorded for NDDPPISIDLPFHLLRNMIEMARIENEREQAGLNAKYLAEV-NH2 [SEQ ID NO 262]
Result: 0.408

Ask: Note down CRF1R EC50 recorded for ZGPPISIDLPFQLLRILIEIEKQEKEKQQAANNALLLAT (C-terminal amide) [SEQ ID NO 358]
Result: 0.099

Ask: Note down CRF1R EC50 recorded for DNPSLSIDLPLLLLRTLLELEKTQSQRERAEQNARIFARV-NH2 [SEQ ID NO 341]
Result: 0.851

Ask: Note down CRF1R EC50 recorded for IVLSLDVPIGLLQILLEQARHAHAHAHAHAQAHILAHV-NH2 [SEQ ID NO 369]
Result: 1

Ask: Note down CRF1R EC50 recorded for ZGPPISIDLPFYLLRKMIEIEKQEKEKQQAANNALLLDTI (C-terminal amide) [SEQ ID NO 230]
Result: 0.219

Ask: Note down CRF1R EC50 recorded for ZGPPISIDLPFHLLRKMIEIEKQEKEKQQAANNALLLDTI (C-terminal amide) [SEQ ID NO 228]
Result: 0.276
